Property: TGI; scope: individual molecules
tested on: K-562 leukemia; assay: NCI tumour cell line growth inhibition, 48 h

COP(=O)(OC)C(=O)N1N(c2ccc([N+](=O)[O-])cc2)C(=O)C(C)NC1(NNc1ccc([N+](=O)[O-])cc1)P(=O)(OC)OC (configuration not stated) | > 100 µM

COC(=O)C(N)CCCC(N)C(=O)NC(C)C(=O)NC(CCC(=O)NCCNCCNc1c2ccccc2nc2cccc([N+](=O)[O-])c12)C(N)=O (configuration not stated) yielded TGI of 20.7 µM

`COC(=O)/C=C1\C(=O)N(C(C)=O)c2ccc(Br)cc21` yielded TGI of 44.9 µM

CC(Nc1ncc2c(n1)-c1ccccc1OC2)C(=O)O (configuration not stated) yielded TGI of > 100 µM

c1ccc(-c2nnn3c2NC2=C(CCCC2)C3c2ccccc2)cc1 (configuration not stated) yielded TGI of 29.2 µM

`c1ccc([P+](CCSCCSCC[P+](c2ccccc2)(c2ccccc2)c2ccccc2)(c2ccccc2)c2ccccc2)cc1` yielded TGI of > 100 µM

O=C(c1ccccc1)c1c(CC(O)c2ccccn2)n(C(=O)c2ccccc2)c2ccccc12 (configuration not stated) yielded TGI of > 100 µM

`Cc1nc2ccc(Nc3nc(Cl)nc(N4CCOCC4)n3)cc2n1Cc1ccccc1` yielded TGI of > 100 µM

`CN(C)CCCc1cccc2[nH]c3c(c12)CN(C)CC3` yielded TGI of > 100 µM

`CCN(Cc1ccc(C)cc1)c1ccc(CO)c(Cl)c1` yielded TGI of > 50.5 µM

`N#Cc1cc(C#N)c(N)nc1N` yielded TGI of > 100 µM

`CCc1n[nH]c(=O)n1/N=C/c1ccccc1O` yielded TGI of > 100 µM

----------
test system: ACHN renal; test: NCI tumour cell line growth inhibition, 48 h
experimental_endpoint: TGI

CN1c2ccccc2N(C(=O)c2ccc([N+](=O)[O-])cc2)C(CC(=O)O)c2cccn21 (stereo not drawn) | > 100 µM

`OCc1cn(C(c2ccccc2)(c2ccccc2)c2ccccc2)cn1` yielded TGI of > 100 µM

CCN1C(=S)N(c2ccccc2)C2NC(=S)N(/N=C/C=C/c3ccccc3OC)C21 (stereo not drawn) yielded TGI of > 100 µM

----------
tested on: UO-31 renal; assay: NCI tumour cell line growth inhibition, 48 h
Property: TGI; scope: individual compounds

CN1C(=O)CCC1(O)C1C=CC=CC1 (stereo unspecified) | > 100 µM

O=C1NC(=O)C(F)(n2cc(F)c(=O)[nH]c2=O)C(O)N1 (stereo unspecified) yielded TGI of > 10 µM

`O=c1c2cc(I)ccc2nc(SCc2nncs2)n1Cc1ccccc1` yielded TGI of 2.6 µM

`COc1nc2[nH]ccc2c(=O)[nH]1` yielded TGI of > 100 µM

`c1ccc2sc(SCCSc3nc4ccccc4s3)nc2c1` yielded TGI of > 100 µM

`CN(C)c1ccc(C=Nc2ccc(-c3nc4ccccc4[nH]3)cc2)cc1` yielded TGI of > 100 µM

----------
tested on: SK-MEL-2 melanoma; assay: NCI tumour cell line growth inhibition, 48 h
Property: TGI; scope: individual molecules
Entry rule: numbers only, all in µM.

Some molecules with recorded TGI:
Cc1nc2ccc(Nc3nc(Cl)nc(N4CCOCC4)n3)cc2n1Cc1ccccc1 | 26
CS(=O)(=O)Nc1cncc(-c2ccc3ncnc(Nc4ccc(F)c(Cl)c4)c3c2)c1 | 3.79
C/C(=N\NC(=S)N1CCCCC1)c1ccccn1 | 3.8
CCCCCCCCCCCCCCCCCc1cccc(OCOCCOC)c1C(=O)O | 39.2

Reported TGI (SK-MEL-2 melanoma) for entry `O=c1[nH]c(Nc2ccc(Cl)c(C(F)(F)F)c2)nc2nc[nH]c12` is 91.2
